Data origin, for the record: ChEMBL document CHEMBL4513216

# METHOD NOTES: Toxicity liver stage against HepG2, at 10uM
# Type: cell-based
# Parameters: test concentration 10 uM, cell line HepG2-A16-CD81EGFP
# TEST CONTEXT: human, HepG2-A16-CD81EGFP cells; read-out: INHIBITION
EXPERIMENTAL READOUT: cytotoxicity at 10 µM (%)

{"COMPOUND": "C[C@@H]1CN(Cc2ccc(C(F)(F)F)cc2F)CC[C@]1(C)O", "EXPERIMENTAL READOUT": "cytotoxicity at 10 µM", "UNIT INFO": "%", "NUMERIC READOUT": 4.54}
{"COMPOUND": "O=C(c1ccncc1)N1CCc2ncnc(C3CCOC3)c2CC1 (stereo unspecified)", "EXPERIMENTAL READOUT": "cytotoxicity at 10 µM", "UNIT INFO": "%", "NUMERIC READOUT": -73.2}
{"COMPOUND": "Cc1nc(O)cc(C2CCN(C(=O)C(C)Cn3nc(C)nc3C)CC2)n1 (stereo unspecified)", "EXPERIMENTAL READOUT": "cytotoxicity at 10 µM", "UNIT INFO": "%", "NUMERIC READOUT": -1.89}
{"COMPOUND": "CC(C)n1nc2c(cc1=O)CN(CCOc1ccccc1C#N)CC2", "EXPERIMENTAL READOUT": "cytotoxicity at 10 µM", "UNIT INFO": "%", "NUMERIC READOUT": 13.7}
{"COMPOUND": "Cc1cc(C(=O)N2CCS(=O)(=O)CC2)c(C)o1", "EXPERIMENTAL READOUT": "cytotoxicity at 10 µM", "UNIT INFO": "%", "NUMERIC READOUT": -16.8}
{"COMPOUND": "CN1CC2(CCN(C(=O)c3ccc(=O)n(C)c3)CC2)CC1=O", "EXPERIMENTAL READOUT": "cytotoxicity at 10 µM", "UNIT INFO": "%", "NUMERIC READOUT": -4.46}
{"COMPOUND": "O=C(CS(=O)(=O)c1ccccn1)NC1CCCc2ccccc21 (stereo unspecified)", "EXPERIMENTAL READOUT": "cytotoxicity at 10 µM", "UNIT INFO": "%", "NUMERIC READOUT": -4.04}
{"COMPOUND": "Cc1n[nH]cc1CNC(=O)Nc1cccc(OCC(F)(F)F)c1", "EXPERIMENTAL READOUT": "cytotoxicity at 10 µM", "UNIT INFO": "%", "NUMERIC READOUT": 8.64}
{"COMPOUND": "COc1ccccc1CNC(=O)C(C)N1CC(n2cc(C)cn2)C1 (stereo unspecified)", "EXPERIMENTAL READOUT": "cytotoxicity at 10 µM", "UNIT INFO": "%", "NUMERIC READOUT": 6.15}
{"COMPOUND": "Cc1ccccc1C1(C(=O)NCCN2CCCC2)CCOCC1", "EXPERIMENTAL READOUT": "cytotoxicity at 10 µM", "UNIT INFO": "%", "NUMERIC READOUT": -7.54}
{"COMPOUND": "Cn1cc(C(=O)N(Cc2ccco2)Cc2cccs2)ccc1=O", "EXPERIMENTAL READOUT": "cytotoxicity at 10 µM", "UNIT INFO": "%", "NUMERIC READOUT": -0.0261}
